Test: E. coli acrAB mutant growth effects, primary screen, E. coli filamentation inducers, strain DRC39, OD650, 48 h (AID 1179);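 also: screen aims at cell division blockers that make cells filament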
Conditions: E. coli DRC39 delta-acrAB growth, higher = more signal, called active from +8 up or from −8 down
Binary call on z-score: label 1 from 0.8 upward, label 0 beneath that.

Qu. Tell me whether z-score is at least 0.8 here: C=CCN1C(=O)[C@@]2(O[C@@H](CCO)[C@H]([Si](C)(C)c3ccc(OC)cc3)[C@H]2C)c2cc(N(C=O)c3ccccc3)ccc21
Ans. label 1

Qu. Tell me whether z-score is at least 0.8 here: CC(C)[Si](C#C[Si](C(C)C)(C(C)C)C(C)C)(O[C@H](C)c1cn([C@H](C)c2ccccc2)nn1)C(C)C
Ans. label 1

Qu. Tell me whether z-score is at least 0.8 here: COCCCNC(=O)[C@@]1(Cc2ccccc2CN=[N+]=[N-])COC(c2ccc(OCCCO)cc2)=N1
Ans. label 1

Qu. Tell me whether z-score is at least 0.8 here: COc1ccc([Si](C)(C)[C@@H]2[C@@H](CC(=O)N3CCC[C@H]3CO)O[C@]3(C(=O)N(Cc4ccc(N5CCC5=O)cc4)c4ccccc43)[C@H]2C)cc1
Ans. label 1

Qu. Tell me whether z-score is at least 0.8 here: C=CCNC(=O)[C@@H]1[C@H]2C(=O)O[C@H](c3ccccc3)[C@H](c3ccccc3)N2[C@H](c2ccc(O)cc2)[C@@]12C(=O)Nc1ccc(C#Cc3ccc(OC)cc3)cc12
Ans. label 0

Qu. Tell me whether z-score is at least 0.8 here: O=C1c2ccccc2[C@](Cc2ccccc2I)(C(=O)O)[C@H](c2ccc(CO)cc2)N1Cc1ccccc1Cl
Ans. label 0

Every entry's value here was drawn from PubChem BioAssay.
